Experiment: activity coefficient (dimensionless); of the first substance listed, at infinite dilution; xn = mol fraction of the nth substance listed
Conditions: 378.15 K; 101.33 kPa; Liquid; Chromatography; x1 = 0
experimental endpoint: activity coefficient

>>> df
                                   compound  experimental_endpoint  recorded_measurement
0  C1COCCO1 [1,4-dioxane] + CCCCCCCCCCCC[N+](C)(C)CCOc1ccccc1.N#C[N-]C#N   activity coefficient                 0.898
1  C=CCCCCCCCC [1-decene] + CCCCCCCCCCCC[N+](C)(C)CCOc1ccccc1.N#C[N-]C#N   activity coefficient                  7.22
2  C1CCOC1 [tetrahydrofuran] + CCCCCCCCCCCC[N+](C)(C)CCOc1ccccc1.N#C[N-]C#N   activity coefficient                  0.81
3  CC(C)O [propan-2-ol] + CCCCCCCCCCCC[N+](C)(C)CCOc1ccccc1.N#C[N-]C#N   activity coefficient                 0.535
4  CO [methanol] + CCCCCCCCCCCC[N+](C)(C)CCOc1ccccc1.N#C[N-]C#N   activity coefficient                 0.353
5  CC(C)(C)O [2-methylpropan-2-ol] + CCCCCCCCCCCC[N+](C)(C)CCOc1ccccc1.N#C[N-]C#N   activity coefficient                 0.613
6  CCC(C)O (stereo not drawn) [butan-2-ol] + CCCCCCCCCCCC[N+](C)(C)CCOc1ccccc1.N#C[N-]C#N   activity coefficient                 0.564
7  COC(C)(C)C [2-methoxy-2-methylpropane] + CCCCCCCCCCCC[N+](C)(C)CCOc1ccccc1.N#C[N-]C#N   activity coefficient                  2.53

====

Experiment: activity coefficient (dimensionless); of the first substance listed, at infinite dilution; xn = mol fraction of the nth substance listed
Conditions: 338.15 K; 101.33 kPa; Liquid; Chromatography; x1 = 0
Returns: string. Value is condition met if measured activity coefficient is below 1, and condition not met if it is greater than or equal to it.

In [3]: df
Out[3]:
                                   molecule   class_assignment
0  CCCC=O [butanal] + CCCCCCCCCCCC[N+](C)(C)CCOc1ccccc1.O=S(=O)([N-]S(=O)(=O)C(F)(F)F)C(F)(F)F      condition met
1  CCCCCO [pentan-1-ol] + CCCCCCCCCCCC[N+](C)(C)CCOc1ccccc1.O=S(=O)([N-]S(=O)(=O)C(F)(F)F)C(F)(F)F  condition not met
2  CC(C)O [propan-2-ol] + CCCCCCCCCCCC[N+](C)(C)CCOc1ccccc1.O=S(=O)([N-]S(=O)(=O)C(F)(F)F)C(F)(F)F  condition not met
3  C=CCCCCCC [oct-1-ene] + CCCCCCCCCCCC[N+](C)(C)CCOc1ccccc1.O=S(=O)([N-]S(=O)(=O)C(F)(F)F)C(F)(F)F  condition not met
4  C#CCCCCC [1-heptyne] + CCCCCCCCCCCC[N+](C)(C)CCOc1ccccc1.N#C[N-]C#N  condition not met
5  C1COCCO1 [1,4-dioxane] + CCCCCCCCCCCC[N+](C)(C)CCOc1ccccc1.O=S(=O)([N-]S(=O)(=O)C(F)(F)F)C(F)(F)F      condition met
6  Cc1ccc(C)cc1 [1,4-dimethylbenzene] + CCCCCCCCCCCC[N+](C)(C)CCOc1ccccc1.N#C[N-]C#N  condition not met

====

Experiment: activity coefficient (dimensionless); of the first substance listed, at infinite dilution; xn = mol fraction of the nth substance listed
Conditions: 348.15 K; 101.33 kPa; Liquid; Chromatography; x1 = 0
Cut-off 1 on activity coefficient, inclusive. At or above means criterion met; below means criterion not met.

>>> df
                                   compound   class_assignment
0  CCC(C)(C)C [2,2-dimethylbutane] + CCCCCCCCCCCC[N+](C)(C)CCOc1ccccc1.N#C[N-]C#N      criterion met
1  CC1CCCCC1 [methylcyclohexane] + CCCCCCCCCCCC[N+](C)(C)CCOc1ccccc1.O=S(=O)([N-]S(=O)(=O)C(F)(F)F)C(F)(F)F      criterion met
2  CCO [ethanol] + CCCCCCCCCCCC[N+](C)(C)CCOc1ccccc1.O=S(=O)([N-]S(=O)(=O)C(F)(F)F)C(F)(F)F      criterion met
3  C#CCCCCC [1-heptyne] + CCCCCCCCCCCC[N+](C)(C)CCOc1ccccc1.N#C[N-]C#N      criterion met
4  C=COC(C)=O [vinyl acetate] + CCCCCCCCCCCC[N+](C)(C)CCOc1ccccc1.O=S(=O)([N-]S(=O)(=O)C(F)(F)F)C(F)(F)F  criterion not met
5  CC(C)O [propan-2-ol] + CCCCCCCCCCCC[N+](C)(C)CCOc1ccccc1.O=S(=O)([N-]S(=O)(=O)C(F)(F)F)C(F)(F)F      criterion met
6  CCC(C)O (configuration not stated) [butan-2-ol] + CCCCCCCCCCCC[N+](C)(C)CCOc1ccccc1.N#C[N-]C#N  criterion not met

====

Assay: activity coefficient (dimensionless); of the first substance listed, at infinite dilution; xn = mol fraction of the nth substance listed
Settings: 358.15 K; 101.33 kPa; Liquid; Chromatography; x1 = 0
experimental endpoint: activity coefficient

>>> df
                                   compound  recorded_measurement
0  CCCCCCCC [octane] + CCCCCCCCCCCC[N+](C)(C)CCOc1ccccc1.N#C[N-]C#N                  6.96
1  CCCc1ccccc1 [propylbenzene] + CCCCCCCCCCCC[N+](C)(C)CCOc1ccccc1.N#C[N-]C#N                  1.89
2  CC(C)OC(C)C [diisopropyl ether] + CCCCCCCCCCCC[N+](C)(C)CCOc1ccccc1.O=S(=O)([N-]S(=O)(=O)C(F)(F)F)C(F)(F)F                  2.16
3  C#CCCC [1-pentyne] + CCCCCCCCCCCC[N+](C)(C)CCOc1ccccc1.O=S(=O)([N-]S(=O)(=O)C(F)(F)F)C(F)(F)F                  1.32

====

Assay: activity coefficient (dimensionless); of the first substance listed, at infinite dilution; xn = mol fraction of the nth substance listed
Conditions: 358.15 K; 101.33 kPa; Liquid; Chromatography; x1 = 0
Measured activity coefficient, listed per entry.
experimental endpoint: activity coefficient

In [3]: df
Out[3]:
                                   molecule  recorded_measurement
0  CC(C)OC(C)C [diisopropyl ether] + CCCCCCCCCCCC[N+](C)(C)CCOc1ccccc1.N#C[N-]C#N                  4.29
1  CCCC(=O)OC [methyl butanoate] + CCCCCCCCCCCC[N+](C)(C)CCOc1ccccc1.N#C[N-]C#N                  1.42
2  C#CCCCCC [1-heptyne] + CCCCCCCCCCCC[N+](C)(C)CCOc1ccccc1.N#C[N-]C#N                  2.21
3  Cc1cccc(C)c1 [1,3-dimethylbenzene] + CCCCCCCCCCCC[N+](C)(C)CCOc1ccccc1.O=S(=O)([N-]S(=O)(=O)C(F)(F)F)C(F)(F)F                  1.07
4  CC(C)CO [2-methyl-1-propanol] + CCCCCCCCCCCC[N+](C)(C)CCOc1ccccc1.O=S(=O)([N-]S(=O)(=O)C(F)(F)F)C(F)(F)F                  1.16
5  C1=CCCCC1 [cyclohexene] + CCCCCCCCCCCC[N+](C)(C)CCOc1ccccc1.N#C[N-]C#N                  2.26
6  C#CCCCCC [1-heptyne] + CCCCCCCCCCCC[N+](C)(C)CCOc1ccccc1.O=S(=O)([N-]S(=O)(=O)C(F)(F)F)C(F)(F)F                  1.75

====

Assay: activity coefficient (dimensionless); of the first substance listed, at infinite dilution; xn = mol fraction of the nth substance listed
Settings: 318.15 K; 101.33 kPa; Liquid; Chromatography; x1 = 0
experimental endpoint: activity coefficient

In [3]: df
Out[3]:
                                   compound  experimental_endpoint  recorded_measurement
0  C#CCCC [1-pentyne] + CCCCCCCCCCCC[N+](C)(C)CCOc1ccccc1.O=S(=O)([N-]S(=O)(=O)C(F)(F)F)C(F)(F)F   activity coefficient                  1.07
1  O [water] + CCCCCCCCCCCC[N+](C)(C)CCOc1ccccc1.O=S(=O)([N-]S(=O)(=O)C(F)(F)F)C(F)(F)F   activity coefficient                  3.65
2  CCCC(C)=O [pentan-2-one] + CCCCCCCCCCCC[N+](C)(C)CCOc1ccccc1.O=S(=O)([N-]S(=O)(=O)C(F)(F)F)C(F)(F)F   activity coefficient                 0.386
3  CCCCCCCCC [nonane] + CCCCCCCCCCCC[N+](C)(C)CCOc1ccccc1.O=S(=O)([N-]S(=O)(=O)C(F)(F)F)C(F)(F)F   activity coefficient                  4.77
4  CCCCCCC [heptane] + CCCCCCCCCCCC[N+](C)(C)CCOc1ccccc1.O=S(=O)([N-]S(=O)(=O)C(F)(F)F)C(F)(F)F   activity coefficient                  3.44
5  C=COC(C)=O [vinyl acetate] + CCCCCCCCCCCC[N+](C)(C)CCOc1ccccc1.O=S(=O)([N-]S(=O)(=O)C(F)(F)F)C(F)(F)F   activity coefficient                 0.393
6  CC(C)OC(C)C [diisopropyl ether] + CCCCCCCCCCCC[N+](C)(C)CCOc1ccccc1.O=S(=O)([N-]S(=O)(=O)C(F)(F)F)C(F)(F)F   activity coefficient                   1.9
